Where these numbers come from: ChEMBL document CHEMBL1131513

TEST: Inhibition of NRII and/or NRI phosphorylation in Escherichia coli
pIC50: −log10 of the molar value.
REPORTED PROPERTY: pIC50

Here is how some molecules turned out for pIC50.
Oc1c(Cl)cc(Cl)cc1-c1n[nH]c(-c2cccc(Cl)c2)n1 :: 3.89
Oc1c(Cl)cc(Cl)cc1-c1n[nH]c(-c2ccc(Cl)cc2)n1 :: 4.24
Oc1c(Br)cc(Br)cc1-c1n[nH]c(-c2ccc(Oc3ccccc3)cc2)n1 :: 4.12

a. Oc1c(Cl)cc(Cl)cc1-c1n[nH]c(-c2ccc(Cl)c(C(F)(F)F)c2)n1
b. Oc1c(Cl)cc(Cl)cc1-c1n[nH]c(-c2ccc(Cl)c(Cl)c2)n1
Lower value for measured pIC50? Options: a , b Reply with the label of the item you choose.
b
